Test: Solvent solubility assessment by visual inspection
Type: physicochemical
Settings: 0.1 N NaOH, aqueous buffer, thermodynamic from solid; read-out: Solubility (freely soluble at tested concentration)
valueKind: Solubility

1) CCOC(=O)Nc1ccc(NCc2ccc(F)cc2)cc1NC(=O)[C@@H](N)CCCCN :: > 1 mg/mL

// moving on: another record for Solubility
Value of measured Solubility for the entry CCOC(=O)Nc1ccc(NCc2ccc(F)cc2)cc1NC(=O)OC(C)OC(=O)C(C)C (centres unmarked) : < 1 mg/mL

* * *

Measured AUClast/D, listed per entry.
Assay: Rat PK at equimolar dose to Ezogabine (20 mg/kg) in 0.5% methylcellulose
Conditions: male cannulated rats; equimolar to Ezogabine 20 mg/kg; 0.5% methylcellulose; analyte the dosed prodrug
Procedure: Blood samples were collected at the same time points over 24 hours to generate a concentration time profile. Two male rats were dosed per group. Plasma samples were analyzed by LC/MS/MS and the resulting concentration time profiles and PK parameters are provided.
Numbers only here, please. The scale is ng·h/mL/mg/kg.

Some compounds with known AUClast/D results, for comparison:
1) CCOC(=O)Nc1ccc(NCc2ccc(F)cc2)cc1NC(=O)[C@@H](N)CCCCN :: 6.26
2) CCNC(=O)CC[C@H](N)C(=O)Nc1cc(NCc2ccc(F)cc2)ccc1NC(=O)OCC.Cl :: 305
3) CCOC(=O)Nc1ccc(NCc2ccc(F)cc2)cc1NC(=O)OC(C)OC(=O)C(C)C (centres unmarked) :: 0.0136
4) CCOC(=O)Nc1ccc(NCc2ccc(F)cc2)cc1NC(=O)[C@H](N)CO :: 199

// moving on: another record for AUClast/D
Value of measured AUClast/D for the entry CCOC(=O)Nc1ccc(NCc2ccc(F)cc2)cc1NC(=O)C[C@@H](CN)CC(C)C : 83.0

* * *

Test: Rat PK at equimolar dose to Ezogabine (20 mg/kg) in 0.5% methylcellulose
Details: male cannulated rats; equimolar to Ezogabine 20 mg/kg; 0.5% methylcellulose; analyte the dosed prodrug
Measured Cmax/D, listed per entry.
Numbers only here, please. The scale is ng/mL/mg/kg.

Some compounds with known Cmax/D results, for comparison:
1. CCOC(=O)Nc1ccc(NCc2ccc(F)cc2)cc1NC(=O)[C@@H](N)CCCCN :: 2.34
2. CCOC(=O)Nc1ccc(NCc2ccc(F)cc2)cc1NC(=O)OC(C)OC(=O)C(C)C (centres unmarked) :: 0.0273
3. CCOC(=O)Nc1ccc(NCc2ccc(F)cc2)cc1NC(=O)[C@H](N)CO :: 233

Value of measured Cmax/D for the entry CCNC(=O)CC[C@H](N)C(=O)Nc1cc(NCc2ccc(F)cc2)ccc1NC(=O)OCC.Cl : 44.2

Value of measured Cmax/D for the entry CCOC(=O)Nc1ccc(NCc2ccc(F)cc2)cc1NC(=O)C[C@@H](CN)CC(C)C : 9.31

* * *

Target: Human Kv7.2/7.3 (Homo sapiens, UniProt O43525+O43526)
Sequence (O43526 whole entry): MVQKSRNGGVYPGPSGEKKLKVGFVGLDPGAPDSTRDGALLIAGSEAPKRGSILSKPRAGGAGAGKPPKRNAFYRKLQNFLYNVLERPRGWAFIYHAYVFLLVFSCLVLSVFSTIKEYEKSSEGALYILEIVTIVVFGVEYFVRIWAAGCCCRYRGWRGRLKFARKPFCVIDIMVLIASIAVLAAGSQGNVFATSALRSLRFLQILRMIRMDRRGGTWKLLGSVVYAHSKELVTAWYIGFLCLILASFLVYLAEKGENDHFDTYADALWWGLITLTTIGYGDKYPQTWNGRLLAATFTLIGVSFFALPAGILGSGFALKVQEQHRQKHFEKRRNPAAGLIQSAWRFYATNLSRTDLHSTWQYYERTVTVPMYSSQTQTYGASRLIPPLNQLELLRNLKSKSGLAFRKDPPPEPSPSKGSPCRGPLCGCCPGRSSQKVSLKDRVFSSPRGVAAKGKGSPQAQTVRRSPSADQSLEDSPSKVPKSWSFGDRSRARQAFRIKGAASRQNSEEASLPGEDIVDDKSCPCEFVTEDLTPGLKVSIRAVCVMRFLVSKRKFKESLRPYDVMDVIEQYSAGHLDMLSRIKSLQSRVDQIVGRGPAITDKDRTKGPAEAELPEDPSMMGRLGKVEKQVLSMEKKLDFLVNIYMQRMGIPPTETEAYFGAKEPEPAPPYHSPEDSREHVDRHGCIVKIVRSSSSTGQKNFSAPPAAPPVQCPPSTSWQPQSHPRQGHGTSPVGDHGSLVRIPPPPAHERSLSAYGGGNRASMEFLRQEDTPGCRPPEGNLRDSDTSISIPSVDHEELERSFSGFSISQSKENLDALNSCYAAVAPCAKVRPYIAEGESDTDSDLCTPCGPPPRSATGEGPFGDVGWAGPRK
Sequence (O43525 whole entry): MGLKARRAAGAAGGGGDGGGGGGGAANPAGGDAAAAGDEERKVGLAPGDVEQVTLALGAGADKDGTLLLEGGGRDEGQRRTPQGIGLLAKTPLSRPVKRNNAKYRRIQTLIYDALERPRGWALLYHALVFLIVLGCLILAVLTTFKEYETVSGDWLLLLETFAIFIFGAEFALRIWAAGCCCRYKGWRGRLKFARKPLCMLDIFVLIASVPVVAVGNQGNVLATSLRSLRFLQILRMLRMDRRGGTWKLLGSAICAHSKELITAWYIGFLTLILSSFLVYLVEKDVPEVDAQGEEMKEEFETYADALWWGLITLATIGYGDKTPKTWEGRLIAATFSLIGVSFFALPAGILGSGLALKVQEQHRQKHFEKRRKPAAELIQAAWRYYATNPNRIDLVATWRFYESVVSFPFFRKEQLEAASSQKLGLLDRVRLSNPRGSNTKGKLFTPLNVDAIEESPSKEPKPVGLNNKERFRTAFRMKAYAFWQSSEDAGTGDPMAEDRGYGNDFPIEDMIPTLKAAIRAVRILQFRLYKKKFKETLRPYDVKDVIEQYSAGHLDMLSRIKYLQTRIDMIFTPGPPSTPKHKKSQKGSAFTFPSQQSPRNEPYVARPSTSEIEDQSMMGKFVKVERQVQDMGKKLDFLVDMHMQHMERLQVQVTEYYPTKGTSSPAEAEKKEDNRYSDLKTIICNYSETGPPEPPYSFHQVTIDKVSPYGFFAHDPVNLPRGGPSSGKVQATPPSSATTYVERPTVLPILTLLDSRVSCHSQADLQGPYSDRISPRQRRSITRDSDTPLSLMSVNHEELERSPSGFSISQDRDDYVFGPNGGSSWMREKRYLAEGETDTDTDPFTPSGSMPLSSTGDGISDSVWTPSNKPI
Assay: In vitro screen of Kv7.2/7.3 voltage gated potassium channels (FluxOR, FLIPR)
valueKind: pEC50
To interpret pEC50, take it as minus log10 of a concentration measured in moles per litre.

Value of measured pEC50 for the entry CCOC(=O)Nc1ccc(NCc2ccc(F)cc2)cc1N [Compound 1, Ezogabine] : 5.80

* * *

Experiment: Solvent solubility assessment by visual inspection
Format: physicochemical
Details: saline or isotonic; 0.9% w/v NaCl, for in vivo studies; read-out: Solubility (formulated as freely soluble solution)
valueKind: Solubility

Value of measured Solubility for the entry CCOC(=O)Nc1ccc(NCc2ccc(F)cc2)cc1NC(=O)[C@@H](N)CCCCN [Compound 4] : ≥ 150 mg/mL
